Source listed as PubChem BioAssay AID1347073.

test: qHTS of TDP-43 Inhibitors: NCGC Sytravon Library Screen; conditions: yeast TDP-43 toxicity rescue, BacTiter-Glo growth, 24 h; series mostly up to 46.1 µM; also: nearly all actives have a fitted effect of over 55% in size
Among all 45,000 compounds or so, about 200 (0.44%) were called active. Inconclusive results (about 7%) are left out. Calls follow the shape of the dose curve; as a rule, active = well fitted activation curve with a large enough effect; inconclusive = small, poorly fitted or top-dose-only effect; inactive = no such curve, though single readings can be large or run the other way. Only a selection was taken, and actives are over-represented in it overall.
Labels: 1 (yes) (active), 0 (no) (inactive)

[
  {
    "molecule": "CN(CC(=O)NC(=O)Nc1ccccc1F)Cc1ccccc1",
    "assigned.category": "0 (no)"
  },
  {
    "molecule": "CC(=O)Nc1ccc(NC(=S)NC(=O)c2ccc([N+](=O)[O-])c(C)c2)cc1",
    "assigned.category": "0 (no)"
  },
  {
    "molecule": "O=C(NNS(=O)(=O)c1ccc(F)cc1)C1CCCCC1",
    "assigned.category": "0 (no)"
  },
  {
    "molecule": "COc1ccc(-c2ccc(C(=O)NC(C)C)c3occc23)c(C)c1",
    "assigned.category": "1 (yes)"
  },
  {
    "molecule": "CCN(CC(=O)NC(C)C)C(=O)c1cc(S(=O)(=O)N2CCCCC2)ccc1N1CCCCC1",
    "assigned.category": "0 (no)"
  },
  {
    "molecule": "CC(C)(C)NC(=O)C(=O)NN=C1CCCCCCC1",
    "assigned.category": "0 (no)"
  },
  {
    "molecule": "Cc1ccc(C)c(NC(=O)c2ccc3nccnc3c2)c1",
    "assigned.category": "0 (no)"
  },
  {
    "molecule": "Cc1ccc(SCC(=O)NNC(=O)c2ccc(S(C)(=O)=O)cc2)cc1",
    "assigned.category": "0 (no)"
  },
  {
    "molecule": "O=C(NCCc1ccc(F)cc1)c1n[nH]c2ccccc12",
    "assigned.category": "0 (no)"
  },
  {
    "molecule": "O=C(Nc1ccc(F)cc1)N1CCN(c2ccc(F)cc2)CC1",
    "assigned.category": "0 (no)"
  },
  {
    "molecule": "Cc1cccc(NC(=S)N2CCC(O)CC2)c1C",
    "assigned.category": "0 (no)"
  },
  {
    "molecule": "CCNc1nc(NCC)nc(N/N=C/c2ccc(O)c(OC)c2)n1",
    "assigned.category": "0 (no)"
  },
  {
    "molecule": "Cc1cc(C)cc(N(CC(=O)NCCSCc2ccco2)S(C)(=O)=O)c1",
    "assigned.category": "0 (no)"
  },
  {
    "molecule": "CC(NC(=O)COC(=O)c1cc(=O)[nH]c2ccccc12)c1ccccc1 (stereo not drawn)",
    "assigned.category": "0 (no)"
  },
  {
    "molecule": "O=C(Nc1ccc(Cl)cc1)c1csc([C@H]2C[C@H](O)[C@@H](CO)O2)n1",
    "assigned.category": "0 (no)"
  },
  {
    "molecule": "O=C(O)CC1(CC(=O)Nc2cccc(C(F)(F)F)c2)CCCC1",
    "assigned.category": "0 (no)"
  },
  {
    "molecule": "O=C(CN1C(=O)NC2(CCCCCC2)C1=O)Nc1ccc([N+](=O)[O-])cc1",
    "assigned.category": "0 (no)"
  },
  {
    "molecule": "CC(=O)NC(CC(=O)Nc1ccc(S(=O)(=O)N2CCOCC2)cc1)c1ccccc1 (stereo not drawn)",
    "assigned.category": "0 (no)"
  },
  {
    "molecule": "Cc1ccc([N+](=O)[O-])cc1S(=O)(=O)N1CCCN(C)CC1",
    "assigned.category": "0 (no)"
  },
  {
    "molecule": "Cc1ccc(S(=O)(=O)N(Cc2ccc(Cl)cc2)c2ccccc2C(=O)NCc2cccnc2)cc1",
    "assigned.category": "0 (no)"
  },
  {
    "molecule": "Cc1nc(CN2CCN(C(=O)CCc3nnc(Cc4c[nH]c5ccccc45)o3)CC2)cs1",
    "assigned.category": "0 (no)"
  },
  {
    "molecule": "CCOC(=O)C1CCN(C(=O)COc2cccc3ccccc23)CC1",
    "assigned.category": "0 (no)"
  },
  {
    "molecule": "CC(=O)N1CCN(C(=O)C2(NC(=O)Nc3ccc(C)cc3)CCCCC2)CC1",
    "assigned.category": "0 (no)"
  },
  {
    "molecule": "COc1ccc(NC(=O)C2COc3ccccc3O2)cc1 (stereo not drawn)",
    "assigned.category": "0 (no)"
  },
  {
    "molecule": "CN(Cc1nc2ccccc2s1)C(=O)c1ccc(F)cc1",
    "assigned.category": "0 (no)"
  },
  {
    "molecule": "CC(C(=O)Nc1ccc(F)c(F)c1F)N1CCCCCC1 (stereo not drawn)",
    "assigned.category": "0 (no)"
  },
  {
    "molecule": "CCOc1ccccc1/C=N/Nc1nc2ccccc2o1",
    "assigned.category": "0 (no)"
  },
  {
    "molecule": "CCOC(=O)Cc1csc(NC(=O)CSc2ccc(Br)cc2)n1",
    "assigned.category": "1 (yes)"
  },
  {
    "molecule": "Cc1cccc(C(=O)N2CCN(S(=O)(=O)N3CCCCC3)CC2)c1",
    "assigned.category": "0 (no)"
  },
  {
    "molecule": "O=c1[nH]oc(O)c1-c1ncc(C(F)(F)F)cc1Cl",
    "assigned.category": "0 (no)"
  },
  {
    "molecule": "O=C(c1cccs1)c1cn(CCOc2ccc(Cl)cc2)c2ccccc12",
    "assigned.category": "0 (no)"
  },
  {
    "molecule": "Cc1ccc(NC(=O)CN(C)C(=O)c2ccc(Br)o2)cc1",
    "assigned.category": "0 (no)"
  },
  {
    "molecule": "Cc1ccc(Cl)cc1NC(=S)N(CCN(C)C)Cc1cccs1",
    "assigned.category": "0 (no)"
  },
  {
    "molecule": "COc1ccc(S(=O)(=O)N2CCOCC2)cc1NC(=O)CSc1nnc(NC2CC2)s1",
    "assigned.category": "0 (no)"
  },
  {
    "molecule": "Cc1ccc(CN(CC(=O)NCC2CCCO2)S(=O)(=O)c2ccc(C)cc2)cc1 (stereo not drawn)",
    "assigned.category": "0 (no)"
  },
  {
    "molecule": "CCOC(=O)Cc1csc(SCc2cc(=O)oc3cc(O)ccc23)n1",
    "assigned.category": "0 (no)"
  },
  {
    "molecule": "O=C(C1CCN(S(=O)(=O)c2ccc(Br)s2)CC1)N1CCN(C2CCCCC2)CC1",
    "assigned.category": "0 (no)"
  },
  {
    "molecule": "O=c1c(-c2ccc(Cl)cc2)[n+]([O-])c2ccccc2n1OCc1nc2ccccc2[nH]1",
    "assigned.category": "0 (no)"
  },
  {
    "molecule": "COC(=O)CCNC(=O)c1ccc2[nH]c(C)c(C)c2c1",
    "assigned.category": "0 (no)"
  },
  {
    "molecule": "COc1ccccc1OCc1ccc(C(=O)NC(C)c2ccccc2)o1 (stereo not drawn)",
    "assigned.category": "0 (no)"
  },
  {
    "molecule": "C=CCN1C(=O)C(O)(CC(=O)c2ccccn2)c2ccccc21 (stereo not drawn)",
    "assigned.category": "0 (no)"
  },
  {
    "molecule": "COc1ccc(N2CCN(C(=O)C3CCN(C(=O)c4ccccc4Cl)CC3)CC2)cc1",
    "assigned.category": "0 (no)"
  },
  {
    "molecule": "Nn1c(SCC(=O)Nc2ccc3c(c2)CCC3)nnc1C1CC1",
    "assigned.category": "0 (no)"
  }
]
